# Procedure text: Volume of distribution at steady state in cynomolgus monkey at 1 mg/kg, po and 1 mg/kg, iv
# Type: ADME, organism-based, Macaca fascicularis
# Experimental context: in vivo, read-out: Vdss
Property: Vd (L/kg)
# unit: L/kg | format: bare number

Qu. What value of Vd has been reported for the following molecule? CC[C@H]1[C@H](/C=C/c2ccc(-c3ccccc3)cn2)[C@@H]2[C@@H](C)OC(=O)[C@]2(O)C[C@@H]1C.Cl
Ans. 1.5

###

Record form. Attribute: IC50. Fill in for each entry.
# Study system: Proteinase-activated receptor 1 (Homo sapiens, UniProt P25116)
# Sequence (P25116 whole entry): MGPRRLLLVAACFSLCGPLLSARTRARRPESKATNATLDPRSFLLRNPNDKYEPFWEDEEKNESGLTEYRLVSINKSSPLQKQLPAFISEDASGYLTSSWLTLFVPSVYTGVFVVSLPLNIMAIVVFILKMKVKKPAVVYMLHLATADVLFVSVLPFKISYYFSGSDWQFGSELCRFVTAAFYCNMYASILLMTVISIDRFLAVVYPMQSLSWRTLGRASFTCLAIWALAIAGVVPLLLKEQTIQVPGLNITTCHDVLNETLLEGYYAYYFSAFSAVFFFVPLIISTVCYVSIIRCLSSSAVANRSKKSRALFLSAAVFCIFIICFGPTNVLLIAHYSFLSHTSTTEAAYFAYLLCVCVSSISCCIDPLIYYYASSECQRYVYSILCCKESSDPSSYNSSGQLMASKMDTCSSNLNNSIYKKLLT
# Procedure text: Displacement of [3H]haTRAP from human PAR1 after 1 hr by TopCount scintillation counting
# Experimental context: read-out: IC50
# unit: µM | format: bare number

Qu. Query for Proteinase-activated receptor 1 (Homo sapiens, UniProt P25116): what IC50 does the record show for CC[C@H]1[C@H](/C=C/c2ccc(-c3ccccc3C)cn2)[C@@H]2[C@@H](C)OC(=O)[C@]2(O)C[C@@H]1C ?
Ans. 0.033

Qu. Ok, now CC[C@H]1[C@H](/C=C/c2ccc(-c3cccc(C#N)c3)cn2)[C@@H]2[C@@H](C)OC(=O)[C@]2(O)C[C@@H]1C
Ans. 0.02

Qu. Ok, now CC[C@H]1[C@H](/C=C/c2ccc(-c3ccccc3Cl)cn2)[C@@H]2[C@@H](C)OC(=O)[C@@H]2C[C@@H]1C
Ans. 0.025

###

Record form. Attribute: AUC(0-t) at 24 h. Fill in for each entry.
# Procedure text: AUC (0 to 24 hrs) in cynomolgus monkey plasma at 3 mg/kg, po
# Assay type: ADME, organism-based, Macaca fascicularis
# Parameters: time < 24 hr, dose 3 mg/kg, route oral
# unit: µg·h/mL | format: bare number

Qu. What value of AUC(0-t) at 24 h has been reported for the following compound? CC[C@H]1[C@H](/C=C/c2ccc(-c3ccsc3)cn2)[C@@H]2[C@@H](C)OC(=O)[C@]2(O)C[C@@H]1C.Cl
Ans. 4.74

Qu. Ok, now CC[C@H]1[C@H](/C=C/c2ccc(-c3cccc(C)c3)cn2)[C@@H]2[C@@H](C)OC(=O)[C@]2(O)C[C@@H]1C.Cl
Ans. 2.77

Qu. Ok, now CC[C@H]1[C@H](/C=C/c2ccc(-c3cccc(Cl)c3Cl)cn2)[C@@H]2[C@@H](C)OC(=O)[C@@H]2C[C@@H]1C
Ans. 0.573
